B1: PPFIA4 (parent)
chain: VMTLPSDLRKHRRKLLSPVSREEN

variants of: B1; assay: protein stability index of a GFP-peptide fusion (GPS, HEK-293T) (PSI 1-6); higher = more stable; conditions: c terminus: a fixed tail appended;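 note: lentivirally expressed fusions sorted by FACS into six bins by GFP to DsRed ratio, PSI derived from sequencing read proportions per bin multiplied by bin number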
parameter: protein stability index
One number for each entry.

Please review the entries below; each comes with its answer.
variant code	protein stability index
L8K	4.14
H11E	4.37
L15W	3.5
K14P	4.01
M2T	4.46

List reported protein stability index for each of these variants:
1. R21P
2. S17E
3. M2G
4. V19C
5. P5E

stdout:
1: 3.91; 2: 3.86; 3: 4.17; 4: 3.17; 5: 4.18
